# measurement target: C-type lectin domain family 4 member E (Mus musculus)
# method summary: Agonist activity at mincle in wild type C57BL/6 mouse GM-CSF derived BMDM assessed as increase in IL-6 release at 0.1 to 1 nmol after 24 hrs by sandwich ELISA
The source made the active and inactive calls. No cut-off for these calls is given here.
Entry note: the call must match one of Yes (active), No (inactive)

Examples with answers:
{"molecule": "CCCCOc1ccc(C(=O)OC[C@H]2O[C@H](O[C@H]3O[C@H](COC(=O)c4ccc(OCCCC)cc4O)[C@@H](O)[C@H](O)[C@H]3O)[C@H](O)[C@@H](O)[C@@H]2O)c(O)c1", "category": "No"}
{"molecule": "Cc1cc(O)cc(O)c1C(=O)OC[C@H]1O[C@H](O[C@H]2O[C@H](COC(=O)c3c(C)cc(O)cc3O)[C@@H](O)[C@H](O)[C@H]2O)[C@H](O)[C@@H](O)[C@@H]1O", "category": "No"}
{"molecule": "CCCCCCCCCCCCCCCCCCOc1ccc(C(=O)OC[C@H]2O[C@H](O[C@H]3O[C@H](COC(=O)c4ccc(OCCCCCCCCCCCCCCCCCC)cc4)[C@@H](O)[C@H](O)[C@H]3O)[C@H](O)[C@@H](O)[C@@H]2O)cc1", "category": "Yes"}

Called result for COc1ccc(C(=O)OC[C@H]2O[C@H](O[C@H]3O[C@H](COC(=O)c4ccc(OC)cc4O)[C@@H](O)[C@H](O)[C@H]3O)[C@H](O)[C@@H](O)[C@@H]2O)c(O)c1 No

Per the records of this test, what outcome belongs to CCCCCCCCCCCCCCCCCCOc1cc(C)c(C(=O)OC[C@H]2O[C@H](O[C@H]3O[C@H](COC(=O)c4c(C)cc(OCCCCCCCCCCCCCCCCCC)cc4O)[C@@H](O)[C@H](O)[C@H]3O)[C@H](O)[C@@H](O)[C@@H]2O)c(O)c1 ? Yes

Numbers sourced from ChEMBL document CHEMBL4033780.
